meta.source: patent US9340537B2

tested system: ABL1 (64-515) (Homo sapiens (Human), UniProt P00519)
Sequence (P00519 64-515): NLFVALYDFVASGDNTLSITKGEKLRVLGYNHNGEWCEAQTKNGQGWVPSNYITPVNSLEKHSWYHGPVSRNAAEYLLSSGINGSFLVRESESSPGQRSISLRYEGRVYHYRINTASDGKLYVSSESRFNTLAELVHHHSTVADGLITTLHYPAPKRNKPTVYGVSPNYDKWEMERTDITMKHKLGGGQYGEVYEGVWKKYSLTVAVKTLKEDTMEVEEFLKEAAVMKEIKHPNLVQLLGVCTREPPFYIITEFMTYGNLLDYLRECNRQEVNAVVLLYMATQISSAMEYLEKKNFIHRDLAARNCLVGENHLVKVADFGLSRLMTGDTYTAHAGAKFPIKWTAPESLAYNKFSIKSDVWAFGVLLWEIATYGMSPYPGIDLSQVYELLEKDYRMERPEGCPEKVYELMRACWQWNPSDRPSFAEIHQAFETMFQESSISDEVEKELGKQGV
protocol notes: Radio ABL1 (64-515) radiometric filter-binding kinase assay
Format: biochemical
reported conditions: 20 μM ATP
pIC50: −log10 of the molar value.
reported endpoint: pIC50

Example cases with answers are listed next.
{"columns": ["compound", "recorded number"],
 "data": [
  ["CC1(O)CN(c2ncc(C(=O)Nc3ccc(OC(F)(F)F)cc3)cc2-c2ncc[nH]2)C1 [Example 69]", 9.70],
  ["CC1(O)CN(c2ncc(C(=O)Nc3ccc(OC(F)(F)Cl)cc3)cc2-c2ccn[nH]2)C1 [Example 66]", 8.82],
  ["O=C(Nc1ccc(OC(F)(F)Cl)cc1)c1cnc(N2CCC(O)CC2)c(-c2ccn[nH]2)c1 [Example 85]", 8.70],
  ["O=C(Nc1ccc(OC(F)(F)Cl)cc1)c1cnc(N2CCN(CC(F)(F)F)CC2)c(-c2ccn[nH]2)c1 [Example 60]", 9.00],
  ["O=C(Nc1ccc(OC(F)(F)F)cc1)c1cnc(N2CC[C@@H](O)C2)c(-c2nccs2)c1 [Example 9]", 8.00]
]}

(A) O=C(Nc1ccc(OC(F)(F)Cl)cc1)c1cnc(N2CCC3(CNC3)C2)c(-c2ccn[nH]2)c1 [Example 50]
(B) CN(C)C1CN(c2ncc(C(=O)Nc3ccc(OC(F)(F)F)cc3)cc2-c2ccn[nH]2)C1 [Example 38]
(C) O=C(Nc1ccc(OC(F)(F)Cl)cc1)c1cnc(N2CCC[C@@H](O)C2)c(-c2ccn[nH]2)c1 [Example 87]
Write the entries in order, lowest recorded pIC50 first. I would appreciate it if you listed the labels in the requested order.
B, C, A

(1) CO[C@H]1CN(c2ncc(C(=O)Nc3ccc(OC(F)(F)F)cc3)cc2-c2ccn[nH]2)C[C@@H]1N (relative stereo) [Example 78]
(2) N#Cc1ccc(-c2cc(C(=O)Nc3ccc(OC(F)(F)Cl)cc3)cnc2N2C[C@H](O)[C@@H](O)C2)[nH]1 [Example 46]
Which has the smaller recorded pIC50, 1 or 2 ? Answer by quoting the chosen item's label.
1
(1: 8.40, 2: 9.00)

----------
tested system: ABL1 (64-515) (Homo sapiens (Human), UniProt P00519)
protocol notes: Radio ABL1 (64-515) radiometric filter-binding kinase assay
Assay type: biochemical
reported conditions: 20 μM ATP
pIC50: −log10 of the molar value.
reported endpoint: pIC50

Example cases with answers are listed next.
{"columns": ["smi", "pIC50"],
 "data": [
  ["O=C(Nc1ccc(OC(F)(F)Cl)cc1)c1cnc(N2CC3(CNC3)C2)c(-c2ccn[nH]2)c1", 8.70],
  ["CC1(O)CN(c2ncc(C(=O)Nc3ccc(OC(F)(F)F)cc3)cc2-c2ccn[nH]2)C1", 8.40],
  ["O=C(Nc1ccc(SC(F)(F)F)cc1)c1cnc(N2CC[C@@H](O)C2)c(-c2ccc[nH]2)c1", 8.43]
]}

(a) O=C(Nc1ccc(OC(F)(F)F)cc1)c1cnc(N2CC(CO)C2)c(-c2ccn[nH]2)c1
(b) CN(CCO)c1ncc(C(=O)Nc2ccc(SC(F)(F)F)cc2)cc1-c1ccn[nH]1
Consider a and b . Which of these has its pIC50 at a higher number? Answer by quoting the chosen item's label.
a
(a: 8.52, b: 7.96)

----------
tested system: ABL1 (64-515) (Homo sapiens (Human), UniProt P00519)
protocol notes: Caliper ABL1 (64-515) microfluidic mobility shift kinase assay
reported conditions: read-out: Caliper ABL1 (64-515) IC50
pIC50: −log10 of the molar value.
reported endpoint: pIC50

Example cases with answers are listed next.
{"columns": ["compound", "reported endpoint", "recorded number"],
 "data": [
  ["N#Cc1ccc(-c2cc(C(=O)Nc3ccc(OC(F)(F)F)cc3)ccc2N2C[C@H](O)[C@@H](O)C2)[nH]1", "pIC50", 9.30],
  ["O=C(Nc1ccc(OC(F)(F)Cl)cc1)c1cnc(NC[C@@H](O)CCO)c(-c2ccn[nH]2)c1", "pIC50", 8.24]
]}

(a) O=C(O)CCNc1ncc(C(=O)Nc2ccc(OC(F)(F)F)cc2)cc1-c1ccn[nH]1
(b) O=C(Nc1ccc(OC(F)(F)Cl)cc1)c1cnc(N2CCNC3(CC3)C2)c(-c2ccn[nH]2)c1
Consider a and b . Which of these has its pIC50 at a higher number? Answer by quoting the chosen item's label.
b

(P) O=C(Nc1ccc(OC(F)(F)Cl)cc1)c1cnc(N2CCN(CC(F)F)CC2)c(-c2ccn[nH]2)c1
(Q) N#Cc1cc(-c2cc(C(=O)Nc3ccc(OC(F)(F)F)cc3)cnc2N2CCCC2)[nH]n1
Consider P and Q . Which of these has its pIC50 at a higher number? Answer by quoting the chosen item's label.
P

(A) O=C(Nc1ccc(OC(F)(F)Cl)cc1)c1cnc(NCC[C@H](O)CO)c(-c2ccn[nH]2)c1
(B) CN(C)C1CN(c2ncc(C(=O)Nc3ccc(OC(F)(F)F)cc3)cc2-c2ccn[nH]2)C1
Which has the smaller recorded pIC50, A or B ? Answer by quoting the chosen item's label.
A
